Origin of measurements: patent US10988477B2

# TESTED TARGET: intracellular GCN2 (phosphorylation of the GCN2 substrate eIF2α) (Homo sapiens, UniProt Q9P2K8)
# Sequence (Q9P2K8 whole entry): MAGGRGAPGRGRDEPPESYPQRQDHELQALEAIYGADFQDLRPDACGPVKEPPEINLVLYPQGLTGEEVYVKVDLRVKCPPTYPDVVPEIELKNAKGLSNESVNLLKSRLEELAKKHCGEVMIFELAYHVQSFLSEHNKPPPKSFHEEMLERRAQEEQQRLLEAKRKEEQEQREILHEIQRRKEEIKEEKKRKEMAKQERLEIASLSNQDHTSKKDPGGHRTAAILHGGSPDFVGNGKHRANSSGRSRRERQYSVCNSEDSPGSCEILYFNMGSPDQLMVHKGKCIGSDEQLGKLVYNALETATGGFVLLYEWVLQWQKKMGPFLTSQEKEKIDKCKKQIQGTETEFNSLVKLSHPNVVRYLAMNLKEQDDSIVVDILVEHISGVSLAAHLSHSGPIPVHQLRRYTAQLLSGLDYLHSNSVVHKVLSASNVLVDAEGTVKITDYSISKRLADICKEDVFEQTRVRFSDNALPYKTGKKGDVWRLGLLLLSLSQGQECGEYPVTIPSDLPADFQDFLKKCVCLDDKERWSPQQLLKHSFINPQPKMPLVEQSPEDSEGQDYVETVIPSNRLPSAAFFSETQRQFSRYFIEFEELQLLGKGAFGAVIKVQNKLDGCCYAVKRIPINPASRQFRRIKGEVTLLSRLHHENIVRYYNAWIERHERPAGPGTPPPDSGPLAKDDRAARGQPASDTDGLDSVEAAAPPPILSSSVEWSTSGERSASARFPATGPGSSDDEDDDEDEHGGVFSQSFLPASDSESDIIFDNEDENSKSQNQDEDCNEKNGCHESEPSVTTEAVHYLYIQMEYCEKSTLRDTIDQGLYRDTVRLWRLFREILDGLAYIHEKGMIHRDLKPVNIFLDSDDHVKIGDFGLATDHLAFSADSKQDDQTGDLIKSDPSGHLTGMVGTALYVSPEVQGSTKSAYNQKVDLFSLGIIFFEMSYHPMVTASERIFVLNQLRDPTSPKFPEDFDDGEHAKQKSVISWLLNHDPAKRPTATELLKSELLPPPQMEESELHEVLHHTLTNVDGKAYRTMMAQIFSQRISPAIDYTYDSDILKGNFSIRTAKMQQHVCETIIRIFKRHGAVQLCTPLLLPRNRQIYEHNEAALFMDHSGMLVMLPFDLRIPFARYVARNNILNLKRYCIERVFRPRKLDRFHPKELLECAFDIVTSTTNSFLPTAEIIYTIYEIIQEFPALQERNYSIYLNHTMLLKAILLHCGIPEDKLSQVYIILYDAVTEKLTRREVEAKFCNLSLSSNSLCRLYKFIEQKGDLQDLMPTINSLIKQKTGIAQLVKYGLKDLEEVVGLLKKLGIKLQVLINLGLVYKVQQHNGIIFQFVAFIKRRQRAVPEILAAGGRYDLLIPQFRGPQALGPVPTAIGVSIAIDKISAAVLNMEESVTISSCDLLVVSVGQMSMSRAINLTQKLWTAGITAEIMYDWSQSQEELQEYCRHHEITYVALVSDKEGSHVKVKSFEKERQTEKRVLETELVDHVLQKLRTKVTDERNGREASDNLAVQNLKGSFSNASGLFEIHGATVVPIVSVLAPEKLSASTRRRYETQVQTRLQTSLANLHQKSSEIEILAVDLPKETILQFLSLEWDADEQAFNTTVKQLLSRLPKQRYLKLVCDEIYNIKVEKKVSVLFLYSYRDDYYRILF
# EXPERIMENT SUMMARY: GCN2 cellular inhibition assay (AlphaScreen SureFire P-eIF2α Ser51, borrelidin-treated U2OS cells)
# Format: cell-based
# CONDITION SET: compounds of Formula IV; biomarker assay, phosphorylated eIF2α Ser51 in borrelidin-treated U2OS cells
PARAMETER MEASURED: IC50

Example results:
MOLECULE | EXPERIMENTAL RESULT
CC1CN(c2ccnc(-c3cnc4cnc(C(F)(F)F)cn34)n2)CC(c2cn[nH]c2)N1 (single isomer, unassigned) [IV-460] | 0.5 to 5 µM
NC(=O)C1CCN(c2ccnc(-c3cnc4cnc(C(F)F)cn34)n2)C1 (centres unmarked) | > 5 µM
C[C@@H]1C[C@H](c2cn[nH]c2)CN(c2ccnc(-c3cnc4cnc(C(F)(F)F)cn34)n2)C1 | < 0.5 µM
OC1CCC2CN(c3ccnc(-c4cnc5cnc(C(F)F)cn45)n3)CC2C1 (centres unmarked) | > 5 µM
CC(=O)N1CCN(c2ccnc(-c3cnc4cnc(Cl)cn34)n2)CC1 | > 5 µM
Cc1n[nH]cc1C1CCCN(c2ccnc(-c3cnc4cnc(C(F)F)cn34)n2)C1 (single isomer, unassigned) [IV-469] | > 5 µM

INPUT: So what does the record say about IC50 for Cc1cn2c(-c3nccc(N4CCOC(c5cn[nH]c5)C4)n3)cnc2cn1 (centres unmarked) ?
OUTPUT: 0.5 to 5 µM

INPUT: So what does the record say about IC50 for C[C@H]1CCCN(c2ccnc(-c3cnc4cnc(C(F)F)cn34)n2)C1 ?
OUTPUT: > 5 µM
